test system: PRKD2; settings: concentration: 1 μM,replicates: in singlicate; n = 1;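 further: KINOMEscan kinase panel screen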
outcome measure: %Inh (%)
Enter your answer as a number in %; do not include the unit.

Task: Look up %Inh for this compound: CN(c1ccc2c(c1)nc(NCc1ccc(F)cc1)n2C)c1ccnc(Nc2ccc(CS(C)(=O)=O)cc2)n1.Cl
Result: 24

Task: Could you do the same for Nc1nccc(-c2ccc3c(N)n[nH]c3c2)n1 , please?
Result: 0

Task: Continue with C[C@@H](Oc1cc(-n2cnc3ccc(-c4ccncc4)cc32)sc1C(N)=O)c1ccccc1Cl
Result: 0

Task: Same for OCCn1cc(-c2cnc3nnn(Cc4ccc5ncccc5c4)c3n2)cn1
Result: 0

Task: Thanks! And Cc1ccc(Nc2ccnc(Nc3ccc4c(c3)CS(=O)(=O)C4)n2)cc1O.Cl ?
Result: 55

Task: # iterate: COc1ccc(Nc2nccc(N3CCC(NC(=O)c4cccc(C#N)c4)C3)n2)cc1 (centres unmarked)
Result: 0

Task: Moving on to O=C(Nc1ccccc1)c1cccc(Oc2ccc3nccn3n2)c1
Result: 0

Task: Same for CS(=O)(=O)c1cccc(CNc2nc(Nc3ccc4c(c3)[C@@H]3C[C@@H]4CNC3=O)ncc2C(F)(F)F)c1
Result: 28

---

Give %Inh for every item shown.
system: ALK; details: concentration: 1 μM,replicates: in singlicate; n = 1
Enter your answer as a number in %; do not include the unit.

Task: Entry O=C(Nc1cccc(C(F)(F)F)c1)c1cccc(Oc2ccc3nccn3n2)c1 : reported %Inh = ?
Result: 0

Task: Would you kindly repeat that for COc1cc2c(Nc3ccc(NC(=O)c4ccccc4)cc3)ncnc2cc1OCCCN1CCOCC1 ?
Result: 9

Task: What do we get for CCNCC(Cc1ccccc1)NC(=O)c1cc(Br)c(-c2ccnc3[nH]ccc23)s1.Cl.Cl (stereo not shown) ?
Result: 42

Task: Lookup O=c1[nH]cc(-c2ccc(O)cc2)c2sc(-c3ccncc3)cc12
Result: 0

---

system: TAOK1; conditions: concentration: 1 μM,replicates: in singlicate; n = 1
Record form. Attribute: %Inh. Fill in for each entry.
Entry rule: numbers only, all in %.

Task: Give the measured %Inh of COc1cccc(C2=C(Nc3cccc(Cl)c3)C(=O)NC2=O)c1 .
Result: 21

Task: Now give it for CN(c1ccc2c(c1)nc(NCc1ccc(F)cc1)n2C)c1ccnc(Nc2ccc(CS(C)(=O)=O)cc2)n1.Cl too.
Result: 0

Task: Param item: COc1cc2c(Nc3ccc(NC(=O)c4ccccc4)cc3)ncnc2cc1OCCCN1CCOCC1
Result: 0

Task: // query: CCN1CCN(CCCC(=O)Nc2n[nH]c3nc(-c4ccc(O)cc4)c(Br)cc23)CC1
Result: 53

Task: Next up: C[C@@H](Oc1cc(-n2cnc3cc(-c4ccncc4)ccc32)sc1C(N)=O)c1ccccc1Cl
Result: 0

Task: Please do the same for O=C(Nc1cccc(C(F)(F)F)c1)c1cccc(Oc2ccc3nccn3n2)c1 as well.
Result: 4

Task: Note, next up: CC(=O)Nc1nc2cnc(Nc3cc(NC(=O)c4cccc(CC(C)(C)C#N)c4)ccc3C)nc2s1
Result: 0

Task: Again, but for COC(=O)c1cccc(NC(=O)NC2CCN(c3ccnc(Nc4cc(OC)c(OC)c(OC)c4)n3)C2)c1 (stereo not shown)
Result: 0

Task: // repeat for Cn1ccc2ncnc(Oc3ccc(NC(=O)Nc4ccnc(C(F)(F)F)c4)c(Cl)c3)c21 and report
Result: 0

Task: Next compound up: Cc1n[nH]c2cc(Nc3ccnc(Nc4cccc(CN5CCOCC5)c4)n3)ccc12
Result: 0

Task: # iterate: COC(=O)c1cccc(NC(=O)NC2CCN(c3ccnc(NCc4ccc(F)cc4)n3)CC2)c1
Result: 0

Task: Another compound to look at: COc1cccc(OC)c1C(=O)Nc1cccc(-c2nn3ccccc3c2-c2ccnc(Nc3cccc(F)c3)n2)c1
Result: 62

Task: What do you have for CN1CCN(CCNc2nc3cc(Oc4ccc(NC(=O)Nc5cc(C(F)(F)F)ccc5F)cc4)ccc3[nH]2)CC1.Cl.Cl ?
Result: 0

Task: Now consider O=C(Nc1ccc(Oc2ccc3nc(NC(=O)C4CC4)cn3n2)c(F)c1)c1cccn(-c2ccccc2)c1=O .
Result: 0

Task: And then CNC(=O)c1ccccc1Nc1nc(Nc2cccc(CS(C)(=O)=O)c2)ncc1C.O=CO , what is it?
Result: 72

Task: Now give it for CC(C)c1nc(-c2cccc(NS(=O)(=O)c3ccccc3)c2)c(-c2ccnc(Nc3ccc4c(c3)CN(C)CC4)n2)s1 too.
Result: 97.2

Task: Same lookup for COc1cc(Nc2nccc(N3CCC(NC(=O)c4cccc(C#N)c4)C3)n2)cc(OC)c1OC (stereo not shown) , please.
Result: 0

Task: Next entry: Cl.Nc1n[nH]c2cc(-c3ccccn3)ccc12
Result: 0

Task: Please do the same for CC(=O)c1c(-c2ccncc2)[nH]c(-c2ccncc2)c1C as well.
Result: 63

Task: Now consider NC(=O)Nc1sc(-c2ccc(F)cc2)cc1C(N)=O .
Result: 61

Task: Moving on to CS(=O)(=O)c1cccc(CNc2nc(Nc3ccc4c(c3)[C@@H]3C[C@@H]4CNC3=O)ncc2C(F)(F)F)c1
Result: 51

Task: Ok, now CCCC(=O)Nc1n[nH]c2ncccc12
Result: 2

Task: Then what about the compound COC(=O)Nc1nc2cc(Oc3ccc(NC(=O)Nc4cc(C(F)(F)F)ccc4Cl)cc3)ccc2[nH]1.Cl ?
Result: 0

Task: And for Cc1ccc(CC(=O)N2CCc3cc(-c4cn(C)c5ncnc(N)c45)ccc32)cc1 ?
Result: 0

Task: Okay, and COc1ccc(Nc2nccc(N3CCC(NC(=O)c4cccc(C#N)c4)C3)n2)cc1 (stereo not shown) ?
Result: 0

Task: Try this compound too: CC(=O)Nc1ccc(-c2cc3ncnc(SCC(=O)O)c3s2)cc1
Result: 0

Task: Consider next the compound Cl.c1ccc(Oc2ccc(Nc3ccnc4cc(-c5ccc(CN6CCNCC6)o5)ccc34)cc2)nc1 in the same way.
Result: 0

Task: Check COc1cccc(CNC(=O)NC2CCN(c3ccnc(Nc4cc(OC)c(OC)c(OC)c4)n3)C2)c1 (stereo not shown) too.
Result: 0

Task: Field entry: Cc1ccn2nc(-c3ccc(F)cc3)c(-c3ccncc3)c2c1.Cl
Result: 0

Task: // query: Cn1ccc2ncnc(Oc3ccc(NC(=O)Nc4cccc(C(F)(F)F)c4)c(F)c3)c21
Result: 0

Task: Next compound up: CCn1c(-c2nonc2N)nc2cncc(CNC3CCNCC3)c21.Cl
Result: 0

Task: Entry to check: COc1cc2nccc(Nc3ccc(Oc4ccccc4)cc3)c2cc1OC.Cl
Result: 0

Task: C[C@@H](Oc1cc(-n2cnc3ccc(-c4ccncc4)cc32)sc1C(N)=O)c1ccccc1Cl ?
Result: 0

Task: Then NC(=O)c1ccc(-c2cc3ncnc(SCC(=O)O)c3s2)cc1 ?
Result: 0

Attribution: paper PMC5540273
